# Method: Metabolic stability in rat liver microsomes assessed as intrinsic clearance incubated for 30 mins in presence of NADPH measured per mg protein
# Assay type: ADME, Microsome
# Conditions: liver microsomes, read-out: CLH
Measured Parameter: microsomal CLint (µL/min/mg)

Compound	microsomal CLint (µL/min/mg)
CC(C)CS(=O)(=O)Nc1ccc(-c2cc(F)ccc2N2CCCCC2)nn1	0.483
CCCS(=O)(=O)Nc1ccc(-c2cc(F)ccc2N2CCCCC2)nn1	0.168

I. Cc1ccc(S(=O)(=O)Nc2ccc(-c3cccc(F)c3N3CCCCC3)nn2)cc1
II. Cc1ccc(S(=O)(=O)Nc2ccc(-c3c(F)cccc3N3CCCCC3)nn2)cc1
IN: Parameter metric = microsomal CLint. Return the lower-valued option from I and II . The response must carry the label of the picked entry.
OUT: II

I. O=S(=O)(CC1CCCCO1)Nc1ccc(-c2cc(F)ccc2N2CCCCC2)nn1 (centres undefined)
II. O=S(=O)(CC1CCCC1)Nc1ccc(-c2cc(F)ccc2N2CCCCC2)nn1
IN: Field: entry with larger microsomal CLint (options I / II ). The response must carry the label of the picked entry.
OUT: II
(II: 1.6 µL/min/mg, I: 0.435 µL/min/mg)

I. O=S(=O)(CC(F)(F)F)Nc1ccc(-c2cc(F)ccc2N2CCCCC2)nn1
II. Cc1ccc(S(=O)(=O)Nc2ccc(-c3ccccc3N3CCCCC3)nn2)cc1
IN: Field: entry with larger microsomal CLint (options I / II ). The response must carry the label of the picked entry.
OUT: II

----------
# Method: Drug uptake in cynomolgus monkey striatum at 5 mg/kg, po measured after 2 hrs of administration
# Type: ADME, organism-based, Macaca fascicularis
# Conditions: read-out: Drug uptake
Measured Parameter: concentration at 2 h (ng/g)
Entry rule: numbers only, all in ng/g.

IN: Entry under review: `O=C(O)c1cc(-c2ccc(Cl)c(OC3CC3)c2)ncn1` . Reported concentration at 2 h?
OUT: 64.8

----------
# Method: Metabolic stability in human liver microsomes assessed as intrinsic clearance incubated for 30 mins in presence of NADPH measured per mg protein
# Assay type: ADME, Microsome
# Conditions: liver microsomes, read-out: CLH
Measured Parameter: microsomal CLint (µL/min/mg)

Examples from the recorded data:
Compound	microsomal CLint, µL/min/mg
Cc1ccc(S(=O)(=O)Nc2ccc(-c3ccccc3N3CCCCC3)nn2)cc1	1.07
Cc1ccc(S(=O)(=O)Nc2ccc(-c3cccc(F)c3N3CCCCC3)nn2)cc1	0.178
CCCS(=O)(=O)Nc1ccc(-c2cc(F)ccc2N2CCCCC2)nn1	0.179

A. O=S(=O)(CC1CCCCO1)Nc1ccc(-c2cc(F)ccc2N2CCCCC2)nn1 (stereo not given)
B. O=S(=O)(CC(F)(F)F)Nc1ccc(-c2cc(F)ccc2N2CCCCC2)nn1
IN: Field: entry with larger microsomal CLint (options A / B ). The response must carry the label of the picked entry.
OUT: B
(B: 0.569 µL/min/mg, A: 0.139 µL/min/mg)

----------
# Method: Glutathione reactivity assessed as dansylatedGSH-compound conjugate formation in presence of human liver microsomes by fluorescence detector based HPLC analysis
# Type: physicochemical
Measured Parameter: Drug metabolism (µmol/mL)

Examples from the recorded data:
Compound	Measured Result
Cc1ccc(S(=O)(=O)Nc2ccc(-c3c(F)cccc3N3CCCCC3)nn2)cc1	0.000637
COCCS(=O)(=O)Nc1ccc(-c2cc(F)ccc2N2CCCCC2)nn1	0
CCS(=O)(=O)Nc1ccc(-c2cc(F)ccc2N2CCCCC2)nn1	0
COCCCS(=O)(=O)Nc1ccc(-c2cc(F)ccc2N2CCCCC2)nn1	0
CCCS(=O)(=O)Nc1ccc(-c2cc(F)ccc2N2CCCCC2)nn1	0
CC(C)CS(=O)(=O)Nc1ccc(-c2cc(F)ccc2N2CCCCC2)nn1	0.00011

1. O=S(=O)(CC1CCCCO1)Nc1ccc(-c2cc(F)ccc2N2CCCCC2)nn1 (stereo unspecified)
2. Cc1ccc(S(=O)(=O)Nc2ccc(-c3cccc(F)c3N3CCCCC3)nn2)cc1
3. O=S(=O)(CC1CCCC1)Nc1ccc(-c2cc(F)ccc2N2CCCCC2)nn1
4. Cc1ccc(S(=O)(=O)Nc2ccc(-c3ccccc3N3CCCCC3)nn2)cc1
IN: Order each entry by recorded Drug metabolism, climbing from the minimum. # the answer lists labels in the order requested
OUT: 1, 2, 3, 4
(1: 0 µmol/mL, 2: 0.000146 µmol/mL, 3: 0.00049 µmol/mL, 4: 0.000852 µmol/mL)

----------
# Method: Metabolic stability in human liver microsomes assessed as intrinsic clearance incubated for 30 mins in presence of NADPH measured per mg protein
# Assay type: ADME, Microsome
# Conditions: liver microsomes, read-out: CLH
Measured Parameter: microsomal CLint (µL/min/mg)

Examples from the recorded data:
Smiles Code	Unit	Measured Result
O=S(=O)(CC1CCCC1)Nc1ccc(-c2cc(F)ccc2N2CCCCC2)nn1	µL/min/mg	0.703
COCCS(=O)(=O)Nc1ccc(-c2cc(F)ccc2N2CCCCC2)nn1	µL/min/mg	0.179
CC(C)CS(=O)(=O)Nc1ccc(-c2cc(F)ccc2N2CCCCC2)nn1	µL/min/mg	0.375

a. Cc1ccc(S(=O)(=O)Nc2ccc(-c3c(F)cccc3N3CCCCC3)nn2)cc1
b. CCS(=O)(=O)Nc1ccc(-c2cc(F)ccc2N2CCCCC2)nn1
IN: Parameter metric = microsomal CLint. Return the lower-valued option from a and b . The response must carry the label of the picked entry.
OUT: b

----------
# Method: Drug concentration in mouse brain at 10 mg/kg, po measured per gm of tissue
# Assay type: ADME, organism-based
# Conditions: in vivo
Measured Parameter: Ct (ng/g)
Entry rule: numbers only, all in ng/g.

IN: Entry under review: `Cc1ccc(S(=O)(=O)Nc2ccc(-c3ccccc3N3CCCCC3)nn2)cc1` . Reported Ct?
OUT: 230
